meta.source: PubChem BioAssay AID1578

# assay-comment: NOD1 signaling inhibitors, primary screen, cell-based, luminescence, uHTS (AID 1578);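 note: HEK-293T reporter cells stimulated with the NOD1 agonist gamma-tri-DAP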
# stated-conditions: NOD1-driven NF-kB luciferase reporter cells, at 4 µM
Screen size: about 290,000 compounds; about 3,000 (1%) were called active. Cut-off read from the data, not from the text of the source: active = inhibition mostly above about 36% (no sharp cut-off); inactive = mostly below about 34%. For the sample, actives were picked, then their nearest neighbours and some compounds at random.
Answer with one of the outcomes given here: y for active, n for inactive

| compound | assigned-label |
| --- | --- |
| CC1CCN(c2ccc([N+](=O)[O-])cc2C(=O)O)CC1 | n |
| Cc1cccc(N2CCN(C(=O)c3cc(S(=O)(=O)N4CCOCC4)cn3C)CC2C)c1 (stereo unspecified) | n |
| COc1cc(C(=O)NCCCc2nc3ccccc3n2Cc2cc(C)ccc2C)cc(OC)c1OC | y |

// query Identify the outcome logged in this assay for the compound shown: O=C(NCCc1ccccc1)C(=O)N/N=C/c1ccccc1C(F)(F)F
// result n

// query What outcome does the record of this test show for O=C(O)c1ccc(Cl)cc1NC(=O)C1CCCO1 (stereo unspecified) ?
// result n

// query Query: recorded result category for O=C(CN1C(=O)c2ccccc2C1=O)Oc1ccc(Cl)cc1 in this test
// result n

// query In this assay, the call recorded for Cc1ccc(SCC(=O)N2N=CCC2c2ccccc2)cc1 (stereo unspecified) was what?
// result n
